biological target: PLK4 (Homo sapiens, UniProt O00444); assay: PLK4 NanoBRET target engagement assay; details: HEK293 T cells transfected with PLK4 NanoLuc fusion vector; K-5 tracer; 2 hrs incubation
Sequence (O00444 whole entry, the tested form may be a part): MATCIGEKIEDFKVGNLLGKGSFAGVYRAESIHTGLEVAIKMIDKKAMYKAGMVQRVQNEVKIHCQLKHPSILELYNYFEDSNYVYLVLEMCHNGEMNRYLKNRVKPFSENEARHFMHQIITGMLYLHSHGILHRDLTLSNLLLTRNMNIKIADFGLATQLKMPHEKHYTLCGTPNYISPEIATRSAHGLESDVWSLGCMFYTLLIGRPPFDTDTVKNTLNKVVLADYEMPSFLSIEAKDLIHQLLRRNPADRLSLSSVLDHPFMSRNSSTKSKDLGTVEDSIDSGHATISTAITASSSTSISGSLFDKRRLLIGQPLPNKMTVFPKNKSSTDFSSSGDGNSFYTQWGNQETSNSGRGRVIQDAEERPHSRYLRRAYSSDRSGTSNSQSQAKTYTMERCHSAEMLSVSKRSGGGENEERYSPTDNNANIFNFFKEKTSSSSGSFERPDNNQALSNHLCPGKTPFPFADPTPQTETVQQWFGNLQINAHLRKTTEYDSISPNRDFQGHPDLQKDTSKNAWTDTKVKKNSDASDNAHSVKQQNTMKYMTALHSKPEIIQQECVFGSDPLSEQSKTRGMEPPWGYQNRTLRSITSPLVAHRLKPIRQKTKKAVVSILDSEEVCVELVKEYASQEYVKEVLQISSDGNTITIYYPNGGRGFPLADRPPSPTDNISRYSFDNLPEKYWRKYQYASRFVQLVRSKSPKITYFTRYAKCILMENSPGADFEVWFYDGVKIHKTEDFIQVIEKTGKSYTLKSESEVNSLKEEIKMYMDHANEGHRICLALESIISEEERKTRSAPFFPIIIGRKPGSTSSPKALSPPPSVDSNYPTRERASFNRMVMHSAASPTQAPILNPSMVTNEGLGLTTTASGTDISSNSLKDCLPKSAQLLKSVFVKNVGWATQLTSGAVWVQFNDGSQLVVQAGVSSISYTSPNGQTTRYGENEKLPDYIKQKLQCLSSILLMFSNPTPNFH
Give pIC50 for every item shown.
Answers are plain numbers, as −log10 of the molar value.

Worked set:
{"columns": ["Smiles entry", "pIC50"],
 "data": [
  ["Cc1cc(Nc2nc(N(C)c3c(F)cc(C(N)=O)cc3F)nc(-c3cn(C)cn3)c2C2CC2)n[nH]1", 7.77],
  ["COCCn1ncc(-c2nc(N(C)c3c(F)cc(S(C)(=O)=O)cc3F)nc(Nc3cc(C)[nH]n3)c2C2CC2)c1C", 8.40],
  ["COc1c(Nc2cc(C)[nH]n2)nc(N(C)c2ccc(CN(C)C(=O)c3ccccc3)cc2F)nc1-c1cnn(C)c1", 6.54],
  ["COc1c(Nc2cc(C)[nH]n2)nc(Oc2ccc(S(C)(=O)=O)cc2F)nc1-c1cnn(C)c1", 6.40],
  ["[2H]C([2H])([2H])N(C([2H])([2H])[2H])S(=O)(=O)c1ccc(N(C)c2nc(Nc3cc(C)[nH]n3)c(C3CC3)c(-c3cnn(C)c3)n2)c(F)c1", 8.30],
  ["CCn1cnc(-c2nc(N(C)c3c(F)cc(S(C)(=O)=O)cc3F)nc(Nc3cc(C)[nH]n3)c2C2CC2)c1", 8.30]
]}

List pIC50 for every entry below, keeping the order given.
1. COCCn1cnc(-c2nc(N(C)c3c(F)cc(S(C)(=O)=O)cc3F)nc(Nc3cc(C)[nH]n3)c2C2CC2)c1
2. Cc1cc(Nc2nc(N(C)c3c(F)cc(S(C)(=O)=O)cc3F)nc(-c3cc(C(N)=O)n(C)n3)c2C2CC2)n[nH]1
3. CCS(=O)(=O)c1ccc(N(C)c2nc(Nc3cc(C)[nH]n3)c(OC)c(-c3cnn(C)c3)n2)cc1
4. Cc1cc(Nc2nc(N(C)c3c(F)cc(S(C)(=O)=O)cc3F)nc(-c3cnn(CCS(C)(=O)=O)c3)c2C2CC2)n[nH]1
5. Cc1cc(Nc2nc(N(C)c3c(F)cc(S(C)(=O)=O)cc3F)nc(-c3cnn4ccncc34)c2C2CC2)n[nH]1
6. Cc1cc(Nc2nc(N(C)c3c(F)cc(S(C)(=O)=O)cc3F)nc(-c3cnn(C)c3CC#N)c2C2CC2)n[nH]1
7. Cc1cc(Nc2nc(N(C)c3c(F)cc(S(C)(=O)=O)cc3F)nc(N3CCC[C@@H]3C(N)=O)c2C2CC2)n[nH]1
8. Cc1cc(Nc2nc(N(C)c3c(F)cc(S(C)(=O)=O)cc3F)nc(-c3c[nH]nc3C)c2C2CC2)n[nH]1

result:
8.40
7.96
6.77
8.22
7.66
8.70
7.92
8.10

---

molecular target: PLK4 (Homo sapiens, UniProt O00444); experiment: PLK4 NanoBRET target engagement assay; conditions: HEK293 T cells transfected with PLK4 NanoLuc fusion vector; K-5 tracer; 2 hrs incubation
Give IC50 for every item shown.
Give bare numbers, in nM.

{"columns": ["Smiles entry", "System name", "IC50 (nM)"],
 "data": [
  ["Cc1cc(Nc2nc(N(C)c3c(F)cc(S(C)(=O)=O)cc3F)nc(-c3cn(C)nc3C(F)F)c2C2CC2)n[nH]1", "PLK4 (Homo sapiens, UniProt O00444)", 6]
]}

List IC50 for every entry below, keeping the order given.
1. Cc1cc(Nc2nc(N(C)c3c(F)cc(S(C)(=O)=O)cc3F)nc(-c3cnn4c3OCCC4)c2C2CC2)n[nH]1
2. Cc1cc(Nc2nc(N(C)c3ccc(S(C)(=O)=O)cc3Cl)nc(-c3ccn(C)n3)c2C2CC2)n[nH]1
3. COC(=O)CN(c1nc(Nc2cc(C)[nH]n2)c(OC)c(-c2cnn(C)c2)n1)c1ccc(S(C)(=O)=O)cc1F
4. COCc1c(-c2nc(N(C)c3c(F)cc(S(C)(=O)=O)cc3F)nc(Nc3cc(C)[nH]n3)c2C2CC2)cnn1C

result:
1: 6; 2: 50; 3: 370; 4: 2

---

Biological target: PLK4 (Homo sapiens)
Assay: PLK4 NanoBRET target engagement assay
Conditions: HEK293 T cells transfected with PLK4 NanoLuc fusion vector; K-5 tracer; 2 hrs incubation
Protocol: To determine the affinity of Compounds described herein in the PLK4 NanoBRET target engagement assay, HEK293 T cells (ATCC Product Number CRL-3216) are first transfected with the PLK4 NanoLuc fusion vector DNA and Transfection carrier DNA using the Fugene HD Transfection reagent in Opti-MEM No Phenol Red buffer. […] The plate is then transferred in the Envision plate reader where the Acceptor emission (610 nm) and the Donor emission (450 nm) are measured. […]
// returns no (0) unless IC50 is strictly below 10 nM, in which case yes (1)

See these solved cases before continuing.
{"columns": ["Compound", "System name", "Class name"],
 "data": [
  ["COc1c(Nc2cc(C)[nH]n2)nc(N(C)c2cccc(S(C)(=O)=O)c2)nc1-c1cnn(C)c1", "PLK4 (Homo sapiens)", "no (0)"],
  ["Cc1cc(Nc2nc(N(C)c3c(F)cc(S(C)(=O)=O)cc3F)nc(-c3cnn(C)c3C(C)O)c2C2CC2)n[nH]1 (centres unmarked)", "PLK4 (Homo sapiens)", "no (0)"],
  ["COc1c(Nc2cc(C)[nH]n2)nc(Oc2c(F)cc(Br)cc2F)nc1-c1cnn(C)c1", "PLK4 (Homo sapiens)", "no (0)"]
]}

query: Input `Cc1cc(Nc2nc(N(C)c3c(F)cc(S(C)(=O)=O)cc3F)nc(-c3ccn(C4CC4)n3)c2C2CC2)n[nH]1` ; condition: IC50 strictly below 10 nM. Does it hold?
result: yes (1)

query: Could you do the same for `Cc1cc(Nc2nc(N(C)c3c(F)cc(S(C)(=O)=O)cc3F)nc(N3Cc4cnn(C)c4C3)c2C2CC2)n[nH]1` , please?
result: no (0)

query: Could you do the same for Cc1cc(Nc2nc(N(C)c3c(F)cc(S(C)(=O)=O)cc3F)nc(-c3cn4c(n3)C(O)CC4)c2C2CC2)n[nH]1 (centres unmarked) , please?
result: no (0)

query: Could you do the same for `Cc1cc(Nc2nc(N(C)c3c(F)cc(S(C)(=O)=O)cc3F)nc(-c3cnn4cccnc34)c2C2CC2)n[nH]1` , please?
result: yes (1)

query: Could you do the same for `Cc1cc(Nc2nc(N(C)c3c(F)cc(S(C)(=O)=O)cc3F)nc(-c3cnn(CCS(C)(=O)=O)c3C)c2C2CC2)n[nH]1` , please?
result: yes (1)

query: Could you do the same for `COc1c(Nc2cc(C)[nH]n2)nc(N(C)c2ccc(-c3ccnn3C)cc2)nc1-c1cnn(C)c1` , please?
result: no (0)

query: Could you do the same for `Cc1cc(Nc2nc(N(C)c3c(F)cc(S(C)(=O)=O)cc3F)nc(-c3cnc4n3CCOC4)c2C2CC2)n[nH]1` , please?
result: yes (1)

query: Could you do the same for `Cc1cc(Nc2nc(N(C)c3c(F)cc(S(C)(=O)=O)cc3F)nc(-c3c(C)ncn3C)c2C2CC2)n[nH]1` , please?
result: no (0)

query: Could you do the same for `Cc1cc(Nc2nc(N(C)c3c(F)cc(S(C)(=O)=O)cc3F)nc(-c3ccncn3)c2C2CC2)n[nH]1` , please?
result: no (0)

query: Could you do the same for `Cc1cc(Nc2nc(N(C)c3c(F)cc(S(C)(=O)=O)cc3F)nc(-c3cn(C)c(C(=O)N(C)C)n3)c2C2CC2)n[nH]1` , please?
result: no (0)

---

Give log10(IC50) for every item shown.
target: UniProt:O00444; assay: PLK4 NanoBRET target engagement assay; conditions: HEK293 T cells transfected with PLK4 NanoLuc fusion vector; K-5 tracer; 2 hrs incubation
Form field - Quantity: IC50; Unit: nM; Scale: log10

{"columns": ["Smiles entry", "log10(IC50)"],
 "data": [
  ["Cc1cc(Nc2nc(N(C)c3c(F)cc(S(C)(=O)=O)cc3F)nc(Nc3cnn(C)c3)c2C2CC2)n[nH]1", 1.57],
  ["Cc1cc(Nc2nc(N(C)c3c(F)cc(S(C)(=O)=O)cc3F)nc(N3CCO[C@H](C(F)(F)F)C3)c2C2CC2)n[nH]1", 2.26],
  ["Cc1cc(Nc2nc(N(C)c3c(F)cc(N4CCOC4=O)cc3F)nc(-c3cn(C)cn3)c2C2CC2)n[nH]1", 0.78],
  ["Cc1cc(Nc2nc(N(C)c3c(F)cc(S(C)(=O)=O)cc3F)nc(-c3cn(C(F)F)nc3C)c2C2CC2)n[nH]1", 1.08],
  ["Cc1cc(Nc2nc(N(C)c3cc(F)c(S(C)(=O)=O)cc3F)nc(-c3cn(C)cn3)c2C2CC2)n[nH]1", 0.85]
]}

List log10(IC50) for every entry below, keeping the order given.
1. Cc1cc(Nc2nc(N(C)c3c(F)cc(S(C)(=O)=O)cc3F)nc(-c3cnn(C)c3N)c2C2CC2)n[nH]1
2. COC(C)(C)c1c(-c2nc(N(C)c3c(F)cc(S(C)(=O)=O)cc3F)nc(Nc3cc(C)[nH]n3)c2C2CC2)cnn1C

result:
1: 1.46; 2: 1.15
